Experimental system: Farnesyl diphosphate synthase (Leishmania major)
Test description: Binding affinity towards Farnesyl diphosphate synthase from leishmania major
Measure name: Ki (nM)

These recorded examples may help you get a feel for the data.
IN: Give reported Ki for Cc1cccc(Cc2ccc[n+](CC(O)(P(=O)([O-])O)P(=O)(O)O)c2)c1 (configuration not stated) (Farnesyl diphosphate synthase (Leishmania major))
OUT: 70

IN: Identify measured Ki obtained with Farnesyl diphosphate synthase (Leishmania major) for O=P([O-])(O)C(O)(C[n+]1cccc(Cc2ccccc2)c1)P(=O)(O)O (configuration not stated) .
OUT: 160

IN: Under Farnesyl diphosphate synthase (Leishmania major), report Ki for O=P([O-])(O)C(O)(C[n+]1cccc(-c2ccc(O)cc2)c1)P(=O)(O)O (configuration not stated)
OUT: 75

IN: Give Ki for Cc1ccc[n+](CC(O)(P(=O)([O-])O)P(=O)(O)O)c1 (configuration not stated) tested on Farnesyl diphosphate synthase (Leishmania major).
OUT: 38

IN: Recall the reported Ki of COc1ccc[n+](CC(O)(P(=O)([O-])O)P(=O)(O)O)c1 (configuration not stated) when tested on Farnesyl diphosphate synthase (Leishmania major).
OUT: 30

A: CCCCc1ccc[n+](CC(O)(P(=O)([O-])O)P(=O)(O)O)c1 (configuration not stated)
B: O=P([O-])(O)C(O)(C[n+]1cccc(F)c1)P(=O)(O)O (configuration not stated)
IN: // which entry has the larger Ki value, A or B ? State the label of the item chosen.
OUT: B
(B: 50 nM, A: 20 nM)

// provenance: BindingDB's records for doi:10.1021/jm040209d
